target-system: PAF specific receptor binding site (human platelet membranes) (Homo sapiens, UniProt P25105)
Construct: platelet membranes at a drug concentration of 3 nM; from tissue; host or cells: human platelet plasma membranes
Sequence (P25105 whole entry): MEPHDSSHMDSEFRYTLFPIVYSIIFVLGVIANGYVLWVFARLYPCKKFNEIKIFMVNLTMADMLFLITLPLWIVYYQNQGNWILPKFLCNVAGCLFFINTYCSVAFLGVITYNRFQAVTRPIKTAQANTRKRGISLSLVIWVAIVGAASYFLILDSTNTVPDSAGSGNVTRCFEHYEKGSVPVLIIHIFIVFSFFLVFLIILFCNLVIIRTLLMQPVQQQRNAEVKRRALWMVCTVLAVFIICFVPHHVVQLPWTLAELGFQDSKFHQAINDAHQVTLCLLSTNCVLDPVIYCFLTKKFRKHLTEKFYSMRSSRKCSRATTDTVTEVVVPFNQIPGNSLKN
assay-protocol: Inhibition of [3H]N-methylcarbamoyl-PAF binding to human platelet membranes
experimental-conditions: drug concentration of 3 nM, trans configuration
property-name: inhibition at 0.003 µM (%)

CCCS(=O)(=O)c1cc([C@@H]2CC[C@@H](c3cc(OC)c(OC)c(OC)c3)O2)cc(OC)c1OCCSc1ncc[nH]1 (relative stereo) = 60
CCCS(=O)(=O)c1cc([C@H]2CC[C@H](c3cc(OC)c(OC)c(OC)c3)O2)cc(OC)c1OCCSc1ccc(C(=N)N)cc1 (relative stereo) = 60
CCCOc1c(OCCCCSc2ncc[nH]2)cc([C@H]2CC[C@H](c3cc(OC)c(OC)c(OC)c3)O2)cc1S(=O)(=O)CC(C)=O (relative stereo) = 60

The reported numbers originate from patent US5114961A.
